biological target: Aryl hydrocarbon receptor (Homo sapiens); test: DRE-driven luciferase activation via AHR – HG2L7.5c1 HepG2 cells, luminescence, AHR activator project, late-stage follow-up (AID 602171); details: HG2L7.5c1 HepG2 DRE-luciferase reporter, 24 h, at 10 µM, active compounds read high
property label: activation (% of TCDD max) (%)

(a) Cc1c(-c2ccn[nH]2)cc(NC(=O)c2ccc(Cl)cc2)c(=O)n1N
(b) CCCC(=O)Nc1nn(C)c2nc3cc(C)ccc3cc12
(c) COc1ccccc1C(=O)Nc1ccc(N2CCCCC2)cc1
(d) COc1cc2c(cc1NC(=O)Nc1ccc(C)cc1)oc1ccccc12
# order the molecules above by activation (% of TCDD max), highest value first # respond with the labels, arranged in the requested order d, a, c, b

----------
target: Aryl hydrocarbon receptor (Homo sapiens) (UniProt P35869); experiment: DRE-driven luciferase activation via AHR – HG2L7.5c1 HepG2 cells, luminescence, AHR activator project, late-stage follow-up (AID 602171); conditions: HG2L7.5c1 HepG2 DRE-luciferase reporter, 24 h, at 10 µM, active compounds read high
Sequence (P35869 whole entry, looked up): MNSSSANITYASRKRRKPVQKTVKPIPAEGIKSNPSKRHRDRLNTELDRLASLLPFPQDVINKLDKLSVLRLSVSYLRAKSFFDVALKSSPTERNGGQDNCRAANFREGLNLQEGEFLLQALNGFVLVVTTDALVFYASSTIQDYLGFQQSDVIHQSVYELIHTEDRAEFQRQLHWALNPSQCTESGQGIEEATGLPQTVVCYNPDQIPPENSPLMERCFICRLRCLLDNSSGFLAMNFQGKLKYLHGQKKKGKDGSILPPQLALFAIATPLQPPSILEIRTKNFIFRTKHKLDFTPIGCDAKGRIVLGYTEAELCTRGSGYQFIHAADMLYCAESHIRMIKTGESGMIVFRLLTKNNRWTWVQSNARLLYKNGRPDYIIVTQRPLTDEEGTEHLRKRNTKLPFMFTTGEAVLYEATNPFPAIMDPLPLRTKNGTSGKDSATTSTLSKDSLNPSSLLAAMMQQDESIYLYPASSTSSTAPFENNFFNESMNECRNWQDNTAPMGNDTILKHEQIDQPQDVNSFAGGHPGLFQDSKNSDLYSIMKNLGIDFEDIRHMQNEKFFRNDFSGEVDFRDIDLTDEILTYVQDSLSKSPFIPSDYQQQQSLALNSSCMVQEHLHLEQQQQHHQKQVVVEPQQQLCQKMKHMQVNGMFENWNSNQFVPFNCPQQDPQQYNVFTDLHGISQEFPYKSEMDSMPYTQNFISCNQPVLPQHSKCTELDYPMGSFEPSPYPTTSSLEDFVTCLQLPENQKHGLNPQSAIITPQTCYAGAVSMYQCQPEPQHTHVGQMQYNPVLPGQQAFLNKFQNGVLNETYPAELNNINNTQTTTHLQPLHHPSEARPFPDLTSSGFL
property label: activation (% of TCDD max) (%)

Known activation (% of TCDD max) results, listed for orientation:
Cc1csc(SCC(=O)Nc2ccc(Cl)cn2)n1 :: 82
COC(=O)c1ccccc1NC(=O)Cn1ccnc1 :: 71
CCOc1ccc(NC(=O)c2cc3ccccc3cc2OC)cc1 :: 132
COc1ccc(C(=O)Nc2cc(OC)c(NC(=O)c3ccco3)cc2OC)cc1 :: 125
O=C1c2ccccc2-c2nc3ccccc3nc21 :: 197

(I) Cc1ccc(Nc2ncccc2C(N)=O)cc1
(II) COc1ccccc1NC(=O)Nc1cccnc1
(III) O=C(CN1CCOCC1)Nc1nc2ccc([N+](=O)[O-])cc2s1
With regard to activation (% of TCDD max), arrange the entries in ascending order, please. Order the labels as requested and list them. II, III, I
(II: 55%, III: 85%, I: 166%)
